Target: T1, Human interleukin-18 (recombinant human IL-18) (human, UniProt Q14116 37-193)
T1 construct: also called hIL-18
T1 sequence: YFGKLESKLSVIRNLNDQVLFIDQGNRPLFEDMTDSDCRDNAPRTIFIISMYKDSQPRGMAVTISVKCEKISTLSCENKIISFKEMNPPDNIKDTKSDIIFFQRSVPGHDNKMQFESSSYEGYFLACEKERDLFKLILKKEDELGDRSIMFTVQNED
Assay: SPR, Biacore 3000, antibody captured on Protein A, 37 C
MEASUREMENT_LABEL: pKd
Numbers only, as −log10 of the molar value.

Worked cases, pKd given:
- BINDER: "H1L3 humanised anti-IL-18 antibody (antibody, human IgG1, kappa, V domains shown, Human IgG1 / kappa) VH: QVQLVQSGAEVKKPGASVKVSCKVSGEISTGYYFHWVRQAPGKGLEWMGRIDPEDDSTKYAERFKDRVTMTEDTSTDTAYMELSSLRSEDTAVYYCTTWRIYRDSSGRPFYVMDAWGQGTLVTVSS VL: DIQMTQSPSSVSASVGDRVTITCLASEDIYTYLTWYQQKPGKAPQLLIYGANKLQDGVPSRFSGSGSGTDYTLTISSLQPEDEGDYYCLQGSKFPLTFGQGTKLEIKR"
  OBSERVED: 9.73
- BINDER: "H3L3 humanised anti-IL-18 antibody (antibody, human IgG1, kappa, V domains shown, Human IgG1 / kappa) VH: QVQLVQSGAEVKKPGASVKVSCKVSGEISTGYYFHFVRRRPGKGLEWMGRIDPEDDSTKYAERFKDRVTMTADTSTDTAYMELSSLRSEDTATYFCTTWRIYRDSSGRPFYVMDAWGQGTLVTVSS VL: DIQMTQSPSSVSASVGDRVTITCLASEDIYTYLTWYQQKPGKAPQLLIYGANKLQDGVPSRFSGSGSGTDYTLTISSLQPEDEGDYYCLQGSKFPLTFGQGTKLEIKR"
  OBSERVED: 9.96

The following binders each have a reported value; give each one's pKd.
1. H3L2 humanised anti-IL-18 antibody (antibody, human IgG1, kappa, V domains shown, Human IgG1 / kappa) VH: QVQLVQSGAEVKKPGASVKVSCKVSGEISTGYYFHFVRRRPGKGLEWMGRIDPEDDSTKYAERFKDRVTMTADTSTDTAYMELSSLRSEDTATYFCTTWRIYRDSSGRPFYVMDAWGQGTLVTVSS VL: DIQMTQSPSSVSASVGDRVTITCLASEDIYTYLTWYQQKPGKAPKLLIYGANKLQDGVPSRFSGSGSGTDYTLTISSLQPEDFATYYCLQGSKFPLTFGQGTKLEIKR
2. H1L2 humanised anti-IL-18 antibody (antibody, human IgG1, kappa, V domains shown, Human IgG1 / kappa) VH: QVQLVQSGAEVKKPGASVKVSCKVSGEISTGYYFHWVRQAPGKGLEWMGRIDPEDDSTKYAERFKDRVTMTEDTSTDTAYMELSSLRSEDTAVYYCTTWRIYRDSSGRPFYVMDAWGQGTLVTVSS VL: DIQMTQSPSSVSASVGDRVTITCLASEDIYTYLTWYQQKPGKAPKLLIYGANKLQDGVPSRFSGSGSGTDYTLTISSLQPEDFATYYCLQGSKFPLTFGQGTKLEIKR

Response:
9.98
9.71
